experimental_system: Recombinant human MALT-1 (amino acids 340-824) (Homo sapiens (Human), UniProt Q9UDY8)
Sequence (Q9UDY8 340-824): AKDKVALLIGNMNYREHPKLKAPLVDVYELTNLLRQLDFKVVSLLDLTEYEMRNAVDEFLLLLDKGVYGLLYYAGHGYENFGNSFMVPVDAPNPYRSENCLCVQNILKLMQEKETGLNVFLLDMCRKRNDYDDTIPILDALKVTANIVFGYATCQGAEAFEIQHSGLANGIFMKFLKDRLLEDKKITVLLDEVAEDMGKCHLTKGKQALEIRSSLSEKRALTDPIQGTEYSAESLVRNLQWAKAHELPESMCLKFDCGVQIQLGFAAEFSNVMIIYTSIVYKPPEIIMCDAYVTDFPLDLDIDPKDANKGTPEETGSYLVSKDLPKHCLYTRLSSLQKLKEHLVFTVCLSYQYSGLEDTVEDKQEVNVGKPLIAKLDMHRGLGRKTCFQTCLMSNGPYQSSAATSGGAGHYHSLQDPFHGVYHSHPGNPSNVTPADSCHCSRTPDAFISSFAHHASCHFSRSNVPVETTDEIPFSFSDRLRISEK
measurement_protocol: MALT-1 inhibition assay (fluorogenic substrate Ac-LRSR-Rh110-DP)
stated_conditions: recombinant human MALT-1, substrate Ac-LRSR-Rh110-DP

| compound | experimental_system | IC50 / nM |
| --- | --- | --- |
| COc1ccc2ncc(Nc3ccc([C@H](N(C)C(=O)C4CCS(=O)(=O)CC4)C(F)(F)F)cc3)c(C(C)OC)c2n1 (stereo partly drawn) | Recombinant human MALT-1 (amino acids 340-824) (Homo sapiens (Human), UniProt Q9UDY8) | 147 |
| CN(C(=O)[C@@H]1CCN(C(=O)CO)C1)[C@@H](c1ccc(N2CCCc3c2cnc2cc(Cl)nn32)cc1)C(F)(F)F (relative stereo) | Recombinant human MALT-1 (amino acids 340-824) (Homo sapiens (Human), UniProt Q9UDY8) | 57 |
| CN(C(=O)[C@H]1CCC(=O)N1)[C@@H](c1ccc(N2CCCc3c2cnc2cc(Cl)nn32)cc1)C(F)(F)F (relative stereo) | Recombinant human MALT-1 (amino acids 340-824) (Homo sapiens (Human), UniProt Q9UDY8) | 35 |
| CN(C(=O)CN1CCS(=O)(=O)CC1)[C@@H](c1ccc(N2CCCc3c2cnc2cc(Cl)nn32)cc1)C(F)(F)F | Recombinant human MALT-1 (amino acids 340-824) (Homo sapiens (Human), UniProt Q9UDY8) | 163 |
| CN(C(=O)[C@H](O)C1CCS(=O)(=O)CC1)[C@@H](c1ccc(N2CCCc3c2cnc2cc(Cl)nn32)cc1)C(F)(F)F (relative stereo) | Recombinant human MALT-1 (amino acids 340-824) (Homo sapiens (Human), UniProt Q9UDY8) | 109 |
| COc1ccc2ncc(Nc3ccc([C@H](N(C)C(=O)C4CCS(=O)(=O)CC4)C(F)(F)F)cc3)c(C3(F)COC3)c2n1 | Recombinant human MALT-1 (amino acids 340-824) (Homo sapiens (Human), UniProt Q9UDY8) | 109 |
